targetOrTestSystem: human vasopressin V1a receptor (Homo sapiens, UniProt P37288)
Sequence (P37288 whole entry): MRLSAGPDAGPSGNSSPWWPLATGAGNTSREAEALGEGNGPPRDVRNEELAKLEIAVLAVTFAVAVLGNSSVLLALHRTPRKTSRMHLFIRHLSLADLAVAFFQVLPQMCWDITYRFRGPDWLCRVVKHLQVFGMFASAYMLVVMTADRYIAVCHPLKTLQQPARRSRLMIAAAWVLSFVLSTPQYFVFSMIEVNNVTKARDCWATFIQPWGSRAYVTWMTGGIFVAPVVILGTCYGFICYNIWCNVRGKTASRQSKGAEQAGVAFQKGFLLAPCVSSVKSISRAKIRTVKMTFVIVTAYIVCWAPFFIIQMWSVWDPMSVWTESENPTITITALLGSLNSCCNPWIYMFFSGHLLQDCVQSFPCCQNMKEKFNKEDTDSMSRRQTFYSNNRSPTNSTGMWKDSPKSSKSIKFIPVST
assayName: Vasopressin V1a receptor binding assay
appliedConditions: selectivity quotient, human V1a vs human V1b
readoutKind: Ki(h-V1a)/Ki(h-V1b)

Sample answers from the record:
{"molecule": "CCOc1ncccc1C1(CC(=O)N2CCC(N3CCN(C)CC3)CC2)C(=O)N(S(=O)(=O)c2ccc(OC)cc2OC)c2ccc(C#N)cc21.O=C(O)C(F)(F)F (racemic) [Example 6]", "targetOrTestSystem": "human vasopressin V1a receptor (Homo sapiens, UniProt P37288)", "observedValue": "+++ (>30)"}
{"molecule": "CCOc1ncccc1C1(CC(=O)N2CCC(N3CCN(CC)CC3)CC2)C(=O)N(S(=O)(=O)c2ccccc2OC)c2ccc(C#N)cc21.O=C(O)C(F)(F)F (racemic) [Example 4]", "targetOrTestSystem": "human vasopressin V1a receptor (Homo sapiens, UniProt P37288)", "observedValue": "+++ (>30)"}
{"molecule": "CCOc1ncccc1C1(CC(=O)N2CCN(C3CCN(C)CC3)CC2)C(=O)N(S(=O)(=O)c2ccc(OC)cc2OC)c2ccc(C#N)cc21.O=C(O)C(F)(F)F (racemic) [Example 9]", "targetOrTestSystem": "human vasopressin V1a receptor (Homo sapiens, UniProt P37288)", "observedValue": "+++ (>30)"}
{"molecule": "CCOc1ncccc1C1(CC(=O)N2CCN(C3CCN(C)CC3)CC2)C(=O)N(S(=O)(=O)c2ccccc2OC)c2ccc(C#N)cc21.O=C(O)C(F)(F)F (racemic) [Example 8]", "targetOrTestSystem": "human vasopressin V1a receptor (Homo sapiens, UniProt P37288)", "observedValue": "+++ (>30)"}
{"molecule": "CCOc1ncccc1C1(CC(=O)N2CCC(N3CCN(CC)CC3)CC2)C(=O)N(S(=O)(=O)c2ccccc2)c2ccc(C#N)cc21.O=C(O)C(F)(F)F (racemic) [Example 3]", "targetOrTestSystem": "human vasopressin V1a receptor (Homo sapiens, UniProt P37288)", "observedValue": "+++ (>30)"}

Quick check: Ki(h-V1a)/Ki(h-V1b) of CCOc1ncccc1C1(CC(=O)N2CCN(C3CCN(CC)CC3)CC2)C(=O)N(S(=O)(=O)c2ccc(OC)cc2OC)c2ccc(C#N)cc21 (single isomer, unassigned; (-)) [Example 10B] ?
+++ (>30)

Which Ki(h-V1a)/Ki(h-V1b) reading was recorded for the molecule CCOc1ncccc1C1(CC(=O)N2CCC(N3CCN(CC)CC3)CC2)C(=O)N(S(=O)(=O)c2ccc(OC)cc2OC)c2ccc(C#N)cc21.O=C(O)C(F)(F)F (racemic) [Example 2] ?
+++ (>30)

Reported Ki(h-V1a)/Ki(h-V1b), molecule CCOc1ncccc1C1(CC(=O)N2CCC(N3CCN(C)CC3)CC2)C(=O)N(S(=O)(=O)c2ccccc2OC)c2ccc(C#N)cc21.O=C(O)C(F)(F)F (racemic) [Example 5] : ____
++ (15-30)

Bench note: what Ki(h-V1a)/Ki(h-V1b) did CCOc1ncccc1C1(CC(=O)N2CCN(C3CCN(C)CC3)CC2)C(=O)N(S(=O)(=O)c2ccccc2)c2ccc(C#N)cc21.O=C(O)C(F)(F)F (racemic) [Example 7] show?
+++ (>30)

I'd like to know its Ki(h-V1a)/Ki(h-V1b). The molecule in question is CCOc1ncccc1C1(CC(=O)N2CCC(N3CCN(C)CC3)CC2)C(=O)N(S(=O)(=O)c2ccccc2)c2ccc(C#N)cc21.O=C(O)C(F)(F)F (racemic) [Example 1]
++ (15-30)
